- assay.summary: NCI Yeast Anticancer Drug Screen. Data for the mec2-1 strain (AID 157)
- condition.notes: S. cerevisiae mec2-1 strain, at 50.0 µM (retest, dose inferred, filed as 5.0)
- Method: Growth inhibition of yeast strains with defined genetic alterations is measured as a screen for potential anti-cancer activity. Selected strains with alterations in DNA damage repair or cell cycle control were exposed to compounds and growth inhibition was measured relative to vehicle treated controls. The strain used in this assay is mec2-1
Compounds without any hit were thinned out: in the full panel of roughly 79,000, 15% have a hit. The source made the active and inactive calls. Cut-off read from the data, not from the text of the source: active = growth inhibition above about 70%; inactive = the rest.
Labels: active, inactive

compound | answer.label
COC(=O)C(=[N+]=[N-])C(=O)c1ccc([N+](=O)[O-])o1 | active
COc1ccc(C(OCC2OC(n3ccc(NC(=O)c4ccccc4)nc3=O)C(O)C2O)(c2ccccc2)c2ccccc2)cc1 (centres undefined) | active
CC(C)(C)c1cc([N+](=O)[O-])c(O)c([N+](=O)[O-])c1 | inactive
Clc1ccccc1C(c1ccccc1)(c1ccccc1)n1ccnc1 | active
Clc1ccc(-n2ncc3c(NCCCN4CCOCC4)ncnc32)cc1 | active
CCC1CCCCN1C(=S)N/N=C(\C)c1ccccn1 (centres undefined) | active
C=CCCCCCCCCC(=O)NN | active
O=C(OC12CC3CC(CC(C3)C1)C2)c1ccc(NCc2cc(O)ccc2O)cc1 | active
CCN(CC)CC(O)c1cc(-c2ccc(Cl)cc2)nc2cc(Cl)ccc12 (centres undefined) | active
CC1(C)CCC2(C(=O)O)C(O)CC3(C)C(=CCC4C5(C)CCC(OC6OCC(O)C(O)C6OC6OCC(O)C(O)C6OC6OCC(O)C(OC7OC(CO)C(O)C(O)C7O)C6O)C(C)(C)C5CCC43C)C2C1 (centres undefined) | active
S=C1NC2=C(COc3ccccc32)C(c2ccc(Cl)cc2)N1 (centres undefined) | active
N#CC1c2ccccc2C=CN1C(=O)CCCl (centres undefined) | inactive
O=C1Nc2ccc(Br)cc2C1=O | inactive
NC1=C(Br)C(=O)c2ncccc2C1=O | active
COc1c(C)c2c(c(O)c1C/C=C(\C)CCC(=O)O)C(=O)OC2 | active
N#CC(=C1SCS1)[N+](=O)[O-] | active
CCC(=O)c1ccc([N+](=O)[O-])o1 | active
CN1CCc2cc3c(c4c2C1C(O)c1ccccc1-4)OCO3 (centres undefined) | inactive
Cc1ccc(/C=C2\CNC/C(=C\c3ccc(C)cc3)C2=O)cc1 | active
CC(=O)Oc1ccc(OC(C)=O)c2c1CC=CC2 | inactive
Nc1ccc(Oc2ccccc2)c(Cl)c1 | inactive
O=C1C=CC(=O)c2c(O)c(CO)c(CO)c(O)c21 | active
O=C(CBr)C(Br)C(Br)c1ccccc1 (centres undefined) | active
CN(C)c1cc(N)c(Cc2c(N)cc(N(C)C)cc2Cl)c(Cl)c1 | active

---

- assay.summary: NCI Yeast Anticancer Drug Screen. Data for the mlh1 rad18 strain (AID 175)
- condition.notes: S. cerevisiae mlh1 rad18 strain growth inhibition; at 50.0 µM; stronger effect = higher value
About 79,000 compounds went through this panel and 15% of them were active in at least one assay; those are over-represented in the sample as a whole. Activity calls are given as the source filed them. Cut-off read from the data, not from the text of the source: active = growth inhibition above about 70%; inactive = the rest. *1 amine or outer side, *2 acyl side, *3 side chain or, on linkers, in order; H or OH if unused. Where a SMILES comes first, the peptide text is derived from it. [ ]: non-standard residue; d: D form. The star is where a group is joined. X5 = CCC(=O)CC1CC(C)CC(C(=O)[*:2])N1[*:1]; X4 = CCCCCCCCC(C)C(=O)*; Aib = CC(C)(N)C(=O)O; X6 = CC(CN(C)CCO)N*
measure: growth inhibition

compound | data.value
CCOC(=O)C1(C)CCCC1N (stereo unspecified) | 15.7% (inactive)
O=C1C=CC(=O)N1c1ccccc1 | 99.2% (active)
COc1cc(OC)c(/C=C/c2c3ccccc3cc[n+]2C)c(OC)c1 | 54.1% (inactive)
CCCCCCCCC(C)C(=O)N1CCCC1C(=O)N1C(CC(=O)CC)CC(C)CC1C(=O)NC(C)C(=O)NC(C)(C)C(=O)NC(C)(C)C(=O)NC(C(=O)NC(C)C(=O)NC(C)(C)C(=O)NC(C)(C)C(=O)NC(C)CN(C)CCO)C(C)CC (stereo unspecified) (X4-P[X5]A[Aib][Aib]IA[Aib][Aib]-X6; configuration not given here) | 89.7% (active)
O=C(Nc1ccc(Cl)c(Cl)c1)Nc1ccccc1O | 76.2% (active)
CCCCCCCCc1cc(Cl)c(O)c(Cl)c1 | 99.3% (active)
Cc1cc2nc(CC(=O)c3ccncc3)c(=O)[nH]c2cc1C | 73.1% (active)
NC(=Nc1nc(-c2ccccn2)cc2ccccc12)c1ccccn1 | 72.2% (active)
CCN(CC)CCNc1ccc([N+](=O)[O-])c2sc3ccccc3c(=O)c12 | 90.3% (active)
c1ccc(-c2nc(N=C3N=c4ccccc4=N3)[nH]c2-c2ccccn2)nc1 | 75.5% (active)
Cc1ccc(/C=N/Nc2cc(C)c3cccc(C)c3n2)s1 | 90% (active)
O=C(c1ccccc1)C(Br)[N+](=O)[O-] (stereo unspecified) | 99.7% (active)
CC(C)N=C(N)/N=C(\N)Nc1ccc2ccc3ccccc3c2c1 | 99.7% (active)
CC1=C(C2=C(C)C(=O)C(=O)c3cc(C)ccc32)c2ccc(C)cc2C(=O)C1=O | 91% (active)
O=C1c2ccccc2C(=O)c2c(O)c(Cl)cc(O)c21 | 78% (active)
COC(=O)[C@]1(C)CCC[C@]2(C)c3ccc(C(C)C)cc3C(=O)[C@@H](Br)[C@@H]12 | 71.8% (active)
COc1ccc2nc3cc(Cl)ccc3c(NCCCCCN3CCCCC3)c2c1 | 59.9% (inactive)
O=C(Nc1ccc(Cl)c(Cl)c1)OCc1ccco1 | 92% (active)
Nc1nc(N)c2cc(Sc3cccc(C(F)(F)F)c3)ccc2n1 | 88.8% (active)
CC1(C)CCCC2=C1C(=O)N(SC(Cl)(Cl)Cl)C2=O | 90.1% (active)
O=C1C=CC(=O)N1C1CCCCCCCCCCC1 | 79.4% (active)
